The origin of these recorded values is the supplement of paper PMC9732359.

As shown below, each of these sequences has a reported protein stability index value.
- method: protein stability index of a GFP-peptide fusion (yeast GPS) (PSI 1-4); higher = more stable; sorted into four equal gates, so the index is relative within each strain
- condition context: doa10∆
Hey, just send me the number, nothing else.

Input line: Quick one: protein stability index of IPSGNVWNYTFMGTAFN [PRP8] ?
Output line: 2.76

Input line: Please look up its protein stability index: NKNGNAVCSTATVVSTN [PGD1]
Output line: 2.77

Input line: Looking for the measured protein stability index of DGFNKTFHDELNLKFKE [YML103C/NUP188] , can you help?
Output line: 2.41

###

- method: protein stability index of a GFP-peptide fusion (yeast GPS) (PSI 1-4); higher = more stable; sorted into four equal gates, so the index is relative within each strain
- condition context: doa10∆
Record 1 whenever protein stability index is at 3 or higher; record 0 when lower.

Here are 3 sequences together with their reported answers.
{"biopolymer sequence": "KRNGDEVYTLVDSQGLP [ARP7]", "class label": 1}
{"biopolymer sequence": "ELTQVPSARQKYMVKGG [UBP6]", "class label": 0}
{"biopolymer sequence": "GLNSDAEEVRNFALTTL [ECM29]", "class label": 0}

Input line: Please tell me: is the sequence IRTQVNTGGESVVKKED [RGR1] at or over 3 in terms of protein stability index?
Output line: 1

Input line: Identify whether the reported protein stability index of the following sequence is 3 or greater: HLDNSKSVFSSAGLDSA [RPN1]
Output line: 0

Input line: State whether the measured protein stability index reaches 3, counting equality as reaching it, for NGCIFTLNPKTGHLFLK [PRP8]
Output line: 1

Input line: Is it the case that KPPISDSVFSFGPKKEN [YLR335W/NUP2] has protein stability index reaching or exceeding 3?
Output line: 0

###

- method: protein stability index of a GFP-peptide fusion (yeast GPS) (PSI 1-4); higher = more stable; sorted into four equal gates, so the index is relative within each strain
- condition context: pdr5∆
recorded metric: protein stability index

Input line: Request the reported protein stability index associated with LGNHAITIDSVVDANGC [YMR129W/POM152]
Output line: 1.95

Input line: Give the measured protein stability index of TQAKKLYHHTTKTILSG [SRP72] .
Output line: 2.86

Input line: Return reported protein stability index; argument: LYNDNNKNNNNRHNLLN [SWI1]
Output line: 1.96

Input line: protein stability index for CRDSDDHKRFIVFHNEF [DIS3] ?
Output line: 3.26

Input line: Quick one: protein stability index for LQRDLIQTKEQVSINSN [YIL149C/MLP2] ?
Output line: 3.12

Input line: Which protein stability index value is on record for GSHLFSIHAHGSTDVGY [PUP1] ?
Output line: 3.01

Input line: Could you share which protein stability index value was measured for KKIENTMLENITLRGVE [RPO21] ?
Output line: 2.79

###

- method: protein stability index of a GFP-peptide fusion (yeast GPS) (PSI 1-4); higher = more stable; sorted into four equal gates, so the index is relative within each strain
- condition context: san1∆
The label depends only on protein stability index: yes (1) if it is at least 3, no (0) if it is smaller.

// below: answered sequences
{"biopolymer sequence": "VAFDNINTHIETLAYNS [SNF2]", "class label": "no (0)"}
{"biopolymer sequence": "ANKEKKRAEKAARKAEK [RPL24B]", "class label": "yes (1)"}
{"biopolymer sequence": "TLAERQQLAYDLSISAL [RPN9]", "class label": "no (0)"}
{"biopolymer sequence": "KSAYANTEKDYKMVQEQ [SMC2]", "class label": "yes (1)"}
{"biopolymer sequence": "TQTSKEQEIENNGLPMK [ITC1]", "class label": "no (0)"}

Lab note: next sequence to report on.
Input line: Hello, I need to know if VISSGPLAAGNFVSEKG [RPC53] has measured protein stability index not below 3. Thanks!
Output line: yes (1)
